Origin of the recorded values: paper PMC6470784

# Assay Method Text: in vitro
# Condition Parameters: human, Caco-2, pH 6
Measurement Type: Papp B→A at 300 μmol/L (×10⁻⁶ cm/s)
Kindly answer with a numeric value in ×10⁻⁶ cm/s, unit omitted.

What does the record list as Papp B→A at 300 μmol/L for Oc1cc(O)c2c(c1)O[C@H](c1cc(O)c(O)c(O)c1)[C@H](O)C2 [EGC, (−)-epigallocatechin] ? 0.674

For O=C(O[C@@H]1Cc2c(O)cc(O)cc2O[C@@H]1c1ccc(O)c(O)c1)c1cc(O)c(O)c(O)c1 [ECG, (−)-epicatechin gallate] then? 0.387

For Oc1cc(O)c2c(c1)O[C@@H](c1cc(O)c(O)c(O)c1)[C@H](O)C2 [GC, (+)-gallocatechin] then? 0.875

For O=C(O[C@@H]1Cc2c(O)cc(O)cc2O[C@H]1c1ccc(O)c(O)c1)c1cc(O)c(O)c(O)c1 [CG, (−)-catechin gallate] then? 0.651

---

Consider the following molecules; for each one, report its efflux ratio.
# Assay Method Text: Bidirectional transepithelial transport across Caco-2 monolayers (Papp, efflux ratio), with and without MK571
# Condition Parameters: human, Caco-2, pH 6, with MK571 93.11 μmol/L (50 μg/mL), Efflux ratio in the presence of MK571, Caco-2 monolayers, MK571 93.11 μmol/L

What does the record list as efflux ratio for Oc1cc(O)c2c(c1)O[C@H](c1ccc(O)c(O)c1)[C@@H](O)C2 [C, (+)-catechin] ? 1.34

For Oc1cc(O)c2c(c1)O[C@H](c1ccc(O)c(O)c1)[C@H](O)C2 [EC, (−)-epicatechin] then? 1.06

For O=C(O[C@@H]1Cc2c(O)cc(O)cc2O[C@@H]1c1cc(O)c(O)c(O)c1)c1cc(O)c(O)c(O)c1 [EGCG, (−)-epigallocatechin gallate] then? 1.05

For O=C(O[C@@H]1Cc2c(O)cc(O)cc2O[C@H]1c1cc(O)c(O)c(O)c1)c1cc(O)c(O)c(O)c1 [GCG, (−)-gallocatechin gallate] then? 1.24

---

# Tested on: MRP2
# Assay Method Text: MRP2 protein level in Caco-2 cells (Western blot)
# Format: cell-based, human
# Condition Parameters: 300 μmol/L, 2 h
Measurement Type: Increase of protein level of MRP2 (%)
Kindly answer with a numeric value in %, unit omitted.

Recorded Increase of protein level of MRP2 for Oc1cc(O)c2c(c1)O[C@@H](c1cc(O)c(O)c(O)c1)[C@H](O)C2 [GC, (+)-gallocatechin] with MRP2, please? 37.67

For O=C(O[C@@H]1Cc2c(O)cc(O)cc2O[C@H]1c1cc(O)c(O)c(O)c1)c1cc(O)c(O)c(O)c1 [GCG, (−)-gallocatechin gallate] then? 20.67

For Oc1cc(O)c2c(c1)O[C@H](c1cc(O)c(O)c(O)c1)[C@H](O)C2 [EGC, (−)-epigallocatechin] then? 35.67

For O=C(O[C@@H]1Cc2c(O)cc(O)cc2O[C@H]1c1ccc(O)c(O)c1)c1cc(O)c(O)c(O)c1 [CG, (−)-catechin gallate] then? 132.00

---

# Assay Method Text: Bidirectional transepithelial transport across Caco-2 monolayers (Papp, efflux ratio), with and without MK571
# Condition Parameters: human, Caco-2, pH 6
Measurement Type: Papp A→B at 300 μmol/L

What does the record list as Papp A→B at 300 μmol/L for Oc1cc(O)c2c(c1)O[C@H](c1ccc(O)c(O)c1)[C@H](O)C2 [EC, (−)-epicatechin] ? 0.152 ×10⁻⁶ cm/s

For O=C(O[C@@H]1Cc2c(O)cc(O)cc2O[C@@H]1c1cc(O)c(O)c(O)c1)c1cc(O)c(O)c(O)c1 [EGCG, (−)-epigallocatechin gallate] then? 0.093 ×10⁻⁶ cm/s

For O=C(O[C@@H]1Cc2c(O)cc(O)cc2O[C@H]1c1cc(O)c(O)c(O)c1)c1cc(O)c(O)c(O)c1 [GCG, (−)-gallocatechin gallate] then? 0.103 ×10⁻⁶ cm/s

For Oc1cc(O)c2c(c1)O[C@H](c1ccc(O)c(O)c1)[C@@H](O)C2 [C, (+)-catechin] then? 0.156 ×10⁻⁶ cm/s

---

# Assay Method Text: Bidirectional transepithelial transport across Caco-2 monolayers (Papp, efflux ratio), with and without MK571
# Condition Parameters: human, Caco-2, pH 6
Measurement Type: Papp B→A at 300 μmol/L (×10⁻⁶ cm/s)
Kindly answer with a numeric value in ×10⁻⁶ cm/s, unit omitted.

What does the record list as Papp B→A at 300 μmol/L for Oc1cc(O)c2c(c1)O[C@H](c1ccc(O)c(O)c1)[C@H](O)C2 [EC, (−)-epicatechin] ? 1.69

For O=C(O[C@@H]1Cc2c(O)cc(O)cc2O[C@@H]1c1cc(O)c(O)c(O)c1)c1cc(O)c(O)c(O)c1 [EGCG, (−)-epigallocatechin gallate] then? 0.257

For O=C(O[C@@H]1Cc2c(O)cc(O)cc2O[C@H]1c1cc(O)c(O)c(O)c1)c1cc(O)c(O)c(O)c1 [GCG, (−)-gallocatechin gallate] then? 0.293

---

Consider the following compounds; for each one, report its Papp A→B at 300 μmol/L.
# Assay Method Text: in vitro
# Condition Parameters: human, Caco-2, pH 6
Kindly answer with a numeric value in ×10⁻⁶ cm/s, unit omitted.

What does the record list as Papp A→B at 300 μmol/L for Oc1cc(O)c2c(c1)O[C@H](c1cc(O)c(O)c(O)c1)[C@H](O)C2 [EGC, (−)-epigallocatechin] ? 0.246

For O=C(O[C@@H]1Cc2c(O)cc(O)cc2O[C@H]1c1ccc(O)c(O)c1)c1cc(O)c(O)c(O)c1 [CG, (−)-catechin gallate] then? 0.139

For O=C(O[C@@H]1Cc2c(O)cc(O)cc2O[C@@H]1c1ccc(O)c(O)c1)c1cc(O)c(O)c(O)c1 [ECG, (−)-epicatechin gallate] then? 0.138

For Oc1cc(O)c2c(c1)O[C@@H](c1cc(O)c(O)c(O)c1)[C@H](O)C2 [GC, (+)-gallocatechin] then? 0.264

---

# Assay Method Text: Bidirectional transepithelial transport across Caco-2 monolayers (Papp, efflux ratio), with and without MK571
# Condition Parameters: human, Caco-2, pH 6
Measurement Type: Papp at 300 μmol/L

What does the record list as Papp at 300 μmol/L for O=C(O[C@@H]1Cc2c(O)cc(O)cc2O[C@H]1c1cc(O)c(O)c(O)c1)c1cc(O)c(O)c(O)c1 [GCG, (−)-gallocatechin gallate] ? < 1 ×10⁻⁶ cm/s

For Oc1cc(O)c2c(c1)O[C@H](c1ccc(O)c(O)c1)[C@@H](O)C2 [C, (+)-catechin] then? < 1 ×10⁻⁶ cm/s

---

# Assay Method Text: in vitro
# Condition Parameters: human, Caco-2, pH 6
Measurement Type: Papp at 300 μmol/L

What does the record list as Papp at 300 μmol/L for Oc1cc(O)c2c(c1)O[C@@H](c1cc(O)c(O)c(O)c1)[C@H](O)C2 [GC, (+)-gallocatechin] ? < 1 ×10⁻⁶ cm/s

For O=C(O[C@@H]1Cc2c(O)cc(O)cc2O[C@H]1c1ccc(O)c(O)c1)c1cc(O)c(O)c(O)c1 [CG, (−)-catechin gallate] then? < 1 ×10⁻⁶ cm/s

---

Consider the following compounds; for each one, report its Increase of protein level of MRP2.
# Tested on: MRP2
# Assay Method Text: MRP2 protein level in Caco-2 cells (Western blot)
# Assay type: cell-based, human
# Condition Parameters: 300 μmol/L, 2 h
Kindly answer with a numeric value in %, unit omitted.

What does the record list as Increase of protein level of MRP2 for O=C(O[C@@H]1Cc2c(O)cc(O)cc2O[C@@H]1c1cc(O)c(O)c(O)c1)c1cc(O)c(O)c(O)c1 [EGCG, (−)-epigallocatechin gallate] ? 42.67

For O=C(O[C@@H]1Cc2c(O)cc(O)cc2O[C@@H]1c1ccc(O)c(O)c1)c1cc(O)c(O)c(O)c1 [ECG, (−)-epicatechin gallate] then? 24.67

For Oc1cc(O)c2c(c1)O[C@H](c1ccc(O)c(O)c1)[C@@H](O)C2 [C, (+)-catechin] then? 58.33

For Oc1cc(O)c2c(c1)O[C@H](c1ccc(O)c(O)c1)[C@H](O)C2 [EC, (−)-epicatechin] then? 60.00

---

# Assay Method Text: Bidirectional transepithelial transport across Caco-2 monolayers (Papp, efflux ratio), with and without MK571
# Condition Parameters: human, Caco-2, pH 6, Efflux ratio in the absence of MK571, Caco-2 monolayers, no MK571
Measurement Type: efflux ratio
Format: numeric value only, no unit, no commentary.

What does the record list as efflux ratio for Oc1cc(O)c2c(c1)O[C@H](c1ccc(O)c(O)c1)[C@H](O)C2 [EC, (−)-epicatechin] ? 11.2

For O=C(O[C@@H]1Cc2c(O)cc(O)cc2O[C@@H]1c1cc(O)c(O)c(O)c1)c1cc(O)c(O)c(O)c1 [EGCG, (−)-epigallocatechin gallate] then? 2.75

For O=C(O[C@@H]1Cc2c(O)cc(O)cc2O[C@H]1c1cc(O)c(O)c(O)c1)c1cc(O)c(O)c(O)c1 [GCG, (−)-gallocatechin gallate] then? 2.84

For Oc1cc(O)c2c(c1)O[C@H](c1ccc(O)c(O)c1)[C@@H](O)C2 [C, (+)-catechin] then? 16.7
